target: T1, CRD3-4; assay: ELISA, coated CD137-Fc protein 2 µg/mL, antibody 10 or 5 µg/mL; absorbance 620 nm divided by that of the uncoated well
T1 construct: also called fragmented human CD137-Fc fusion protein CRD3-4
T1 sequence (chain, as listed by the source limits assumed): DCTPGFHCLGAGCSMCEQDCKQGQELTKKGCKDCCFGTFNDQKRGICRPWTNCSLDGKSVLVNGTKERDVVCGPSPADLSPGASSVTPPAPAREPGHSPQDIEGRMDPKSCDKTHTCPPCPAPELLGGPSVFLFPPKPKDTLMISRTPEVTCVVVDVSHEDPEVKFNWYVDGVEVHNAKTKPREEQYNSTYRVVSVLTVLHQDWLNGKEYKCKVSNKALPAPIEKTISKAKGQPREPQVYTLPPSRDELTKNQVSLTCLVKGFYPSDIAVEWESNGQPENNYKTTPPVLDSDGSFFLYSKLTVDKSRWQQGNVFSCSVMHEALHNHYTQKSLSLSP
Binary call on Ratio with respect to Non-Coating with cut-off 2: strictly below means Yes, and equality or higher means No.

Recorded results for 5 binders are shown here.
# binder, qualitative.label
records = [
    ("R7 (antibody, V domains shown, Synthetic library clone; Fab on phage in the phage ELISA) VH: QVQLLESGGGLVQPGGSLRLSCAASGFTFSSYAMSWVRQAPGKGLEWVSAISGSGGSTYYADSVKGRFTISRDNSKNTLYLQMNSLRAEDTAVYYCARDRAMYHPSFNYWGQGTLVTVSS VL: DIQMTQSPSSLSASVGDRVTITCRASQSISSYLNWYQQKPGKAPKLLIYAASSLQSGVPSRFSGSGSGTDFTLTISSLQPEDFATYYCQQFNSYPLTFGGGTKVEIK", "No"),
    ("R2 (antibody, V domains shown, Naive library clone; Fab on phage in the phage ELISA) VH: EVQLQESGPGLVKPSETLSLTCTVSGGSISSSSYYWGWIRQPPGKGLEWIGSIHYTGSTYYNPSLKSRVTISVDTSKNQFSLKLSSVTAADTAVYYCARLNPSIAARPGAFDIWGQGTMVTVSS VL: QSVLTQPPSVSAAPGQKVTISCSGSSSNIANNFVSWFQQLPGTAPKLLIYDNNKRPSGIPDRFSGSKSGTSATLGITGLQTGDEADYYCGTWDRSLSAGVFGGGTKVTVL", "Yes"),
    ("R4 (antibody, V domains shown, Naive library clone; Fab on phage in the phage ELISA) VH: EVQLVQSGAEVKKPGASVKVSCKASGYTFSGYYMHWVRQAPGQGLEWMGWINPNSGDTNYAQNFQGRVTMTRDTSISTAYMELSRLRSDDTAVYYCARDGTGYSSSPDYWGQGTPVTVSS VL: QSALTQPASVSGSPGQSITISCTGTSSDVGGYNYVSWYQQHPGKAPKLMIYDVSNRPSGVSNRFSGSKSGNTASLTISGLQAEDEADYYCSSYTSSSTRWVFGGGTKLTVL", "Yes"),
    ("B (antibody, human IgG1, kappa, V domains shown, also called Control B) VH: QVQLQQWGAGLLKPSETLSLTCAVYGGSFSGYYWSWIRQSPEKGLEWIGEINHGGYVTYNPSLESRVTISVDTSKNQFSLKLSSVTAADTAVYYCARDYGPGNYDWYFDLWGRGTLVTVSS VL: EIVLTQSPATLSLSPGERATLSCRASQSVSSYLAWYQQKPGQAPRLLIYDASNRATGIPARFSGSGSGTDFTLTISSLEPEDFAVYYCQQRSNWPPALTFGGGTKVEIKR", "Yes"),
    ("M (antibody, human IgG1, lambda, V domains shown, also called Control M) VH: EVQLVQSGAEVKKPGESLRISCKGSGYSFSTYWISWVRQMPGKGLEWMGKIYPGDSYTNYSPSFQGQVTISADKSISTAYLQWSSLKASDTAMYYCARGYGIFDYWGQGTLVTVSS VL: SYELTQPPSVSVSPGQTASITCSGDNIGDQYAHWYQQKPGQSPVLVIYQDKNRPSGIPERFSGSNSGNTATLTISGTQAMDEADYYCATYTGFGSLAVFGGGTKLTVLQ", "No"),
]

Record R1 (antibody, V domains shown, Naive library clone; Fab on phage in the phage ELISA) VH: EVQLVQSGAEVKKPGASVKVSCKASGYTFTSYYTHWVRQAPGQGLEWMGIINPSGGSTSYAQKFQGRVTMTRDTSTSTVYMELSSLRSEDTAVYYCARGAPEYSSSSDYWGQGTMVTVSS VL: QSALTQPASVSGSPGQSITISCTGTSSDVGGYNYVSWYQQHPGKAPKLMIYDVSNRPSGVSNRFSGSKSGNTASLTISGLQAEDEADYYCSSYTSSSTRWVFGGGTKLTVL : is its Ratio with respect to Non-Coating strictly below 2?
Yes
